Hey, just so you know, these numbers are from the supplement of paper PMC10065799.

tested on: c-Src; assay: phosphorylation enrichment, bacterial display (enrichment ratio); higher = better substrate or ligand; peptides without Tyr show the background;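 note: 11-residue human phosphosite peptides and single-mutation variants displayed on the E. coli surface, counted by deep sequencing, each peptide's frequency after selection divided by its frequency in the unselected input library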;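 note: frequency after pTyr selection over input frequency; kinase dosed for 20-30% of maximal phosphorylation in three min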
Measured parameter: phosphorylation enrichment
Answers are plain numbers.

{"columns": ["Primary sequence", "Val"],
 "data": [
  ["NDEDIYKGLPD [VAV3_Y141]", 0.837]
]}

State recorded phosphorylation enrichment for all listed sequences.
1. LSNPAYRLLLA [DDR1_Y513]
2. RQGQAYRGQRV [TSHR_Y706_A703G]
3. AEPHTYEEPGR [EPHA8_Y616]
4. GLDGSYLLRDS [SH2D1A_Y29]

Solution:
1: 1.21; 2: 0.453; 3: 0.439; 4: 0.397
